# credit: paper PMC9396645

- Test system: C4-2 cells
- method-summary: Internalization efficiency / specific cell uptake in C4-2 cells
- Assay type: cell-based, human
- cond: ^68Ga-labeled compounds 30 nM, 45 min, 37°C, specificity by 2-PMPA 500 μM, mean ± SD (n = 3)
Assign Specific cell surface to each entry below.
Expressed in %IA/10^6cells, but write only the number.

Problem: Param item = O=C(O)CCC(NC(=O)NC(CCCCNC(=O)C(Cc1ccc2ccccc2c1)NC(=O)C1CCC(CNC(=S)Nc2ccc(CC3CN(CC(=O)O)CCN(CC(=O)O)CCN(CC(=O)O)CCN3CC(=O)O)cc2)CC1)C(=O)O)C(=O)O (centres unmarked) ; retrieve measured Specific cell surface.
Result: 43.46

Problem: For the compound shown here, O=C(O)CC[C@H](NC(=O)N[C@@H](CCCCNC(=O)[C@H](Cc1ccc2ccccc2c1)NC(=O)[C@H]1CC[C@H](CNC(=O)CN2CCN(CC(=O)O)CCN(CC(=O)O)CCN(CC(=O)O)CC2)CC1)C(=O)O)C(=O)O [PSMA-617, reference compound] , give the reported Specific cell surface.
Result: 45.18
